System: 156681-154-R-J1 tumor spheroid viability
Test: Anticancer human tumor 156681-154-R-J1 patient-derived melanoma cell line growth inhibition
Details: second compound 0.0949 µM; first compound 3.16 µM; hits give low values; spheroids with HUVEC and MSC
Recorded measurements of viability, T/C, one per entry
Quick note: give the figure in %, leave out the unit.

Check out these entries, answers already filled in.
compound="[2H]c1nc(C)nc([2H])c1-c1cc(NC[C@@H](C)c2cccc3c(C(=O)NC)ccnc23)ncn1 + CC[C@@]1(O)C(=O)OCc2c1cc1n(c2=O)Cc2cc3c(CN(C)C)c(O)ccc3nc2-1" measured_property="viability, T/C" experimental_result=32.4
compound="Cc1cc(C)c(CNC(=O)c2cc(-c3ccc(CN4CCOCC4)cc3)cc3c2cnn3C2CCCC2)c(=O)[nH]1 + CC[C@@]1(O)C(=O)OCc2c1cc1n(c2=O)Cc2cc3c(CN(C)C)c(O)ccc3nc2-1" measured_property="viability, T/C" experimental_result=17.5

// switching to the query compound
[Q] Report its viability, T/C with 156681-154-R-J1 tumor spheroid viability as the test system: COc1ccc([C@@H](O)c2cc(-c3ncnc4cc(N5CCOCC5)ccc34)c(F)cc2Cl)nn1 + CC[C@@]1(O)C(=O)OCc2c1cc1n(c2=O)Cc2cc3c(CN(C)C)c(O)ccc3nc2-1
[A] 36.3

====

Test system: 156681-154-R-J1 tumor spheroid viability
Assay: Anticancer human tumor 156681-154-R-J1 cell line growth inhibition;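 further: spheroids exposed to compounds for 7 days before readout; percent of vehicle control viability where 100% = DMSO-treated spheroids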
Details: second compound 31.6 µM; first compound 0.1 µM; hits give low values; spheroids with HUVEC and MSC
Measured Property: viability, T/C (%)
Quick note: give the figure in %, leave out the unit.

compound="CC(C)n1c(=O)n(C)c2cnc3cc(F)c(-c4ccc(OCCCN5CCCCC5)nc4)cc3c21 + Cn1nnc2c(C(N)=O)ncn2c1=O" measured_property="viability, T/C" experimental_result=54.5
compound="COc1cc(C)[nH]c(=O)c1CN1CCc2c(Cl)cc(C(OC)C3COC3)c(Cl)c2C1=O (stereo unspecified) + Cn1nnc2c(C(N)=O)ncn2c1=O" measured_property="viability, T/C" experimental_result=56.7
compound="[2H]c1nc(C)nc([2H])c1-c1cc(NC[C@@H](C)c2cccc3c(C(=O)NC)ccnc23)ncn1 + Cn1nnc2c(C(N)=O)ncn2c1=O" measured_property="viability, T/C" experimental_result=58.6
compound="CC1COCCN1c1cc(-c2ccnn2C)c2ccnc(-c3ccn[nH]3)c2n1 (stereo unspecified) + Cn1nnc2c(C(N)=O)ncn2c1=O" measured_property="viability, T/C" experimental_result=31.4
compound="COc1ccc([C@@H](O)c2cc(-c3ncnc4cc(N5CCOCC5)ccc34)c(F)cc2Cl)nn1 + Cn1nnc2c(C(N)=O)ncn2c1=O" measured_property="viability, T/C" experimental_result=67.3

[Q] In one line, give reported viability, T/C of the entry Cc1cc(C)c(CNC(=O)c2cc(-c3ccc(CN4CCOCC4)cc3)cc3c2cnn3C2CCCC2)c(=O)[nH]1 + Cn1nnc2c(C(N)=O)ncn2c1=O .
[A] 65.7

====

System: 156681-154-R-J1 tumor spheroid viability
Test: Anticancer human tumor 156681-154-R-J1 cell line growth inhibition;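 further: spheroids exposed to compounds for 7 days before readout; percent of vehicle control viability where 100% = DMSO-treated spheroids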
Details: second compound 0.00949 µM; first compound 0.0316 µM; hits give low values; spheroids with HUVEC and MSC
Measured Property: viability, T/C

compound="[2H]c1nc(C)nc([2H])c1-c1cc(NC[C@@H](C)c2cccc3c(C(=O)NC)ccnc23)ncn1 + CC[C@@]1(O)C(=O)OCc2c1cc1n(c2=O)Cc2cc3c(CN(C)C)c(O)ccc3nc2-1" system_name="156681-154-R-J1 tumor spheroid viability" measured_property="viability, T/C" experimental_result=97.6%
compound="Cc1cc(C)c(CNC(=O)c2cc(-c3ccc(CN4CCOCC4)cc3)cc3c2cnn3C2CCCC2)c(=O)[nH]1 + CC[C@@]1(O)C(=O)OCc2c1cc1n(c2=O)Cc2cc3c(CN(C)C)c(O)ccc3nc2-1" system_name="156681-154-R-J1 tumor spheroid viability" measured_property="viability, T/C" experimental_result=83%
compound="COc1cc(C)[nH]c(=O)c1CN1CCc2c(Cl)cc(C(OC)C3COC3)c(Cl)c2C1=O (stereo unspecified) + CC[C@@]1(O)C(=O)OCc2c1cc1n(c2=O)Cc2cc3c(CN(C)C)c(O)ccc3nc2-1" system_name="156681-154-R-J1 tumor spheroid viability" measured_property="viability, T/C" experimental_result=105%
compound="COc1ccc([C@@H](O)c2cc(-c3ncnc4cc(N5CCOCC5)ccc34)c(F)cc2Cl)nn1 + CC[C@@]1(O)C(=O)OCc2c1cc1n(c2=O)Cc2cc3c(CN(C)C)c(O)ccc3nc2-1" system_name="156681-154-R-J1 tumor spheroid viability" measured_property="viability, T/C" experimental_result=89.9%
compound="CC1COCCN1c1cc(-c2ccnn2C)c2ccnc(-c3ccn[nH]3)c2n1 (stereo unspecified) + CC[C@@]1(O)C(=O)OCc2c1cc1n(c2=O)Cc2cc3c(CN(C)C)c(O)ccc3nc2-1" system_name="156681-154-R-J1 tumor spheroid viability" measured_property="viability, T/C" experimental_result=60.7%

// switching to the query compound
[Q] In one line, give reported viability, T/C of the entry CC(C)n1c(=O)n(C)c2cnc3cc(F)c(-c4ccc(OCCCN5CCCCC5)nc4)cc3c21 + CC[C@@]1(O)C(=O)OCc2c1cc1n(c2=O)Cc2cc3c(CN(C)C)c(O)ccc3nc2-1 .
[A] 77.2%
